Reference source for all entries: ChEMBL document CHEMBL4622892

Let's go through some IC50 measurements on Mushroom tyrosinase (Agaricus bisporus, UniProt O42713+Q00024+C7FF04+C7FF05) together.
# unit: µM | format: bare number

C#CCOC1O[C@H](COC(C)=O)[C@@H](OCc2ccccc2)[C@H](OCc2ccccc2)[C@H]1OCc1ccccc1 (some centres undefined); 461
CC#CCOC[C@H]1OC(OC)[C@H](OCc2ccccc2)[C@@H](OCc2ccccc2)[C@@H]1OCc1ccccc1 (some centres undefined); 274
CC(=O)OC[C@H]1OC(OCc2ccccc2)[C@H](OCc2ccccc2)[C@@H](OCc2ccccc2)[C@@H]1OCc1ccccc1 (some centres undefined); 273

Next:
-- ask Report IC50 for C#CCCOC1O[C@@H]2CO[C@@H](c3ccccc3)O[C@H]2[C@H](O)[C@H]1O (some centres undefined)
-- reply 463
